system name: T1, L1 (DV1-GV4), soluble human Vδ1/Vγ4 γδ TCR heterodimer in leucine zipper format (human)
T1 construct: Biotinylated in the DELFIA ranking; also called Antigen L1 (TRDV1/TRGV4); human DV1-GV4; not shown: gamma chain: Vγ4 (TRGV4) domain on a TCR constant region, leucine zipper, histidine tag
T1 sequence (main, as listed by the source): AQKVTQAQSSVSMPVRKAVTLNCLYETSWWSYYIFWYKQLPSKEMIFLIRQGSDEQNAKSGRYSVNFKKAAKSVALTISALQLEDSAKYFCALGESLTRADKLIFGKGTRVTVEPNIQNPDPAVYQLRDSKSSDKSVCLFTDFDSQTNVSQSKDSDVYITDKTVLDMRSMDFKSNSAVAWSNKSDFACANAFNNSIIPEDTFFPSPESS
assay method text: DELFIA, 100 nM biotinylated L1
quantity measured: DELFIA signal at 100 nM L1
Just the number plus its unit, please.

binder	result
1245_P01_E07 (antibody, IgG1, V domains shown, also called ADT1-7; parental ADT1-7) VH: QVQLVESGGGLVKPGGSLRLSCAASGFTFSDYYMSWIRQAPGKGLEWVSYISSSGSTIYYADSVKGRFTISRDNAKNSLYLQMNSLRAEDTAVYYCARVDYADAFDIWGQGTLVTVSS VL: DIQMTQSPSSLSASVGDRVTIACRAGQSIGTYLNWYQQKPGKAPKLLIYVASSLQSGVPSRFSGSGSGTEFTLTISSLQPEDFATYYCQQSYSTLLTFGRGTKVEIK	163000 fluorescence units
1245_P02_F07 (antibody, IgG1, V domains shown, IgG1) VH: QVQLQQSGPGLVKPSQTLSLTCVISGDSVSSNSAAWNWIRQSPSRGLEWLGRTYYRSKWYNDYAVSVKSRITINPDTSKNQFSLQLNSVTPEDTAVYYCARDYYYSMDVWGQGTMVTVSS VL: DIQMTQSPSTLSASVGDRVTITCRASQSISSWLAWYQQKPGKAPKLLIYDASSLESGVPLRFSGSGSGTEFTLTISSLQPDDFATYYCQQSHSHPPTFGPGTKVDIK	10400 fluorescence units

Could you now look at the following binder, please?
stdin: Which measured DELFIA signal at 100 nM L1 value corresponds to 1245_P02_G04 (antibody, IgG1, V domains shown, also called ADT1-4; parental ADT1-4) VH: QVQLQQSGPGLVKPSQTLSLTCAISGDSVSSKSAAWNWIRQSPSRGLEWLGRTYYRSKWSTDYAASVKSRITINPDTSKNQLSLQLNSVTPEDTAVYYCARTWSGYVDVWGQGTLVTVSS VL: DIQMTQSPPALSASVGDRVTITCRASQDINDWLAWYQHKPGKAPKLLIYDASSLESGVPSRFSGSGSGTEFTLTISSLQPDDFATYYCQQSYSTPQVTFGQGTRLEIK ?
stdout: 5900 fluorescence units
